Target: T1, human LAP-TGFB1 Fc fusion (human)
T1 construct: also called human LAP-TGFβ1-Fc; human LAP-TGFβ-Fc isoform 1
T1 sequence (chain, as listed by the source limits assumed): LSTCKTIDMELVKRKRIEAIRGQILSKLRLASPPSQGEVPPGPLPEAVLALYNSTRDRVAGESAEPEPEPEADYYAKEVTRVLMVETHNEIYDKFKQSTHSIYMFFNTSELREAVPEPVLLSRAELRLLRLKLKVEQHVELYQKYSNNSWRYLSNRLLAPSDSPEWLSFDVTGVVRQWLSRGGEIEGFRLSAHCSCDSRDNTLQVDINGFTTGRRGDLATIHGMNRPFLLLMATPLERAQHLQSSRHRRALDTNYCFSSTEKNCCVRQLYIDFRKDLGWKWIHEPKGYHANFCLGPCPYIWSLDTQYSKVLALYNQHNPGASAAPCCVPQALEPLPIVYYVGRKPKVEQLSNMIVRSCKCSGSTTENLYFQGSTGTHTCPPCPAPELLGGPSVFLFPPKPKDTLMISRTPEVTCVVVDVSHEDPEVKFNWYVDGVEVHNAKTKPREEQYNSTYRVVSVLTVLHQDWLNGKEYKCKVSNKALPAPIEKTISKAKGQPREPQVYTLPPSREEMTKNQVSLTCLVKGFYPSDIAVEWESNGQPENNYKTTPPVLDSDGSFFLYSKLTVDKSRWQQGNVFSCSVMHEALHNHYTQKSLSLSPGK
Assay: SPR pH 7.4, antigen-Fc captured, Fab analyte
value_kind: koff (s⁻¹)
I only need the number, in s⁻¹, no unit after it.

binder | units | endpoint_value
59BLH (Fab, V domains shown, also called 11BLM Fab) VH: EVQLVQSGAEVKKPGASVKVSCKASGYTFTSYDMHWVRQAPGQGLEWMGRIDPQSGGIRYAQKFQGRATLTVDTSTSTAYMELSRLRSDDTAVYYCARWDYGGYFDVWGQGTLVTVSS VL: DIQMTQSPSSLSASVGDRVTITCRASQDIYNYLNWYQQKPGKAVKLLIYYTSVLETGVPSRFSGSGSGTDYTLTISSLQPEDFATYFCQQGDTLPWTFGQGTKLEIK | s⁻¹ | 0.00047

Proceed to the following item.
Please give the measured koff for this binder: 62BLH (Fab, V domains shown, also called 14BLM Fab) VH: EVQLVQSGAEVKKPGASVKVSCKASGYTFTSYDTHWVRQAPGQGLEWMGRIDPQSGGIKYAQKFQGRATLTVDTSTSTAYMELSRLRSDDTAVYYCARWDYGGYFDVWGQGTLVTVSS VL: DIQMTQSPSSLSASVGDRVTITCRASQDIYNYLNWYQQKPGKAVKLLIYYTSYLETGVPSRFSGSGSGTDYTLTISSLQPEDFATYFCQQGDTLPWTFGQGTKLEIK
0.00124
